Origin of values: patent US20080032921A1

Target: HLA-DR DRB1*0401 (human)
Assay: competition assay, purified HLA, inhibition of 125I-labelled reference peptide
Readout Label: log10 IC50 (log10 of the value in nM)
Hi team, quick reminder: these entries are log10 of IC50 (nM).

Examples with answers:
VERILKEESDEALKM (modifications not checked) [Flu.NS1.68]: 2.83
LILYDKEEIRRIWRQ (modifications not checked) [Flu.NP.111]: 4.09
VMRMGDLHSLQNRNG (modifications not checked) [Flu.NS2.125]: 2.65

Batch request: log10 IC50 for each of the following binders.
1. QKAMMDQVRESRNPG (modifications not checked) [Flu.NP.238]
2. GSYFFGDNAEEYDN (modifications not checked) [Flu.NP.488]

## Result
1. 2.93
2. 3.29

## Task For the binder DILMRMSKMQLGSSS (modifications not checked) [Flu.NS2.87] , give its measured log10 IC50 value.
## Result 2.86
